Assay Protocol: EWS/Fli-driven NR0B1 reporter inhibitors, primary screen, A673 cells, NR0B1 luciferase, luminescence, MLPCN library (AID 651661);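 further: firefly luciferase signal divided by Alamar Blue viability fluorescence both relative to DMSO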
Measurement Setup: viability-normalised, at 12.6 µM
About 2,300 (0.66%) of roughly 350,000 compounds were called active.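 How the source made its calls: active means mean inhibition of at least 50% after viability correction, with every replicate also passing that limit; inconclusive means mean reaches 50% but only one of two replicates passes; inactive means the rest.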 What follows is part of a selection rich in actives, with near analogues and random picks from the rest.
Outcomes: Y (active), N (inactive)

compound=O=C(CCl)N(Cc1cccc([N+](=O)[O-])c1)c1cccc(Cl)c1 qualitative_label=Y
compound=CC(C)CN(C[C@@H]1N[C@@H](CO)[C@H]1c1ccccc1)C(=O)CN(C)C qualitative_label=N
compound=Cc1ccc(C)c(Cn2nnc3c(=O)[nH]c(C(=O)Nc4ccc(F)cc4)nc32)c1 qualitative_label=N
compound=CCN(CC)CCCNC(=O)c1cc2c(=O)[nH]c3ccc(C)cc3c2s1 qualitative_label=N
compound=CN(c1ccc2nc3ccccc3c(=O)n2n1)C1CCCCC1 qualitative_label=Y
compound=Cc1cc(C)cc(NS(=O)(=O)Cc2ccccc2)c1 qualitative_label=N
compound=O=c1cc(-c2ccccc2)[nH]c2cc(F)ccc12 qualitative_label=Y
compound=COc1ccccc1NC(=O)N1CC(=O)N2[C@H](C1)[C@H](c1ccc(C#Cc3ccccc3)cc1)[C@@H]2CO qualitative_label=N
compound=N#C[C@@H]1[C@H](c2ccc(C#Cc3cccc(F)c3)cc2)[C@@H](CO)N1C(=O)C1CCCC1 qualitative_label=Y
compound=Cc1ccc2[nH]c(=O)c(CC(=O)O)c(-c3ccccc3)c2c1 qualitative_label=N
compound=O=C(Nc1ccc(F)cc1)c1ccc(S(=O)(=O)NCc2cccnc2)cc1 qualitative_label=N
compound=Cc1cccc(CS(=O)(=O)c2ncc(Cl)c(C(=O)Nc3ccc(F)cc3)n2)c1 qualitative_label=Y
compound=CC(C)CNC(=O)C(=O)Nc1ccc(N(C)C)cc1 qualitative_label=N
compound=CN(C)CCN1CCN(c2cc(-c3cccc(Cl)c3)nc3ccnn23)CC1 qualitative_label=N
compound="COc1cc(Cn2c3ccc(NC(=O)CC(C)c4ccccc4)cc3c(=O)n2C)ccc1F (stereo unspecified)" qualitative_label=N
compound="CC(=O)N(CN1C(=O)C2C3C=CC(C3)C2C1=O)c1cccc(Cl)c1 (stereo unspecified)" qualitative_label=N
compound=N#C[C@@H]1[C@@H](c2ccc(C#Cc3cccc(F)c3)cc2)[C@H](CO)N1C(=O)C1CCOCC1 qualitative_label=N
compound=C#Cc1cc(N2CCN(C(=O)c3ccoc3)CC2)n2nc(-c3cccc(Cl)c3)cc2n1 qualitative_label=Y
compound=Cc1cccc(N(C)C(=O)c2cc3c(=O)[nH]c4ccc(C)cc4c3s2)c1 qualitative_label=Y
compound=Cc1ccc(S(=O)(=O)CCC(=O)Nc2nnc(CC(C)C)s2)cc1 qualitative_label=N
compound=Cc1ccc(-c2cc(=O)c3ccc(F)cc3[nH]2)cc1 qualitative_label=N
